Entries and their measured composite z-score follow.
Target: Carbonic anhydrase 2 (Homo sapiens)
Assay: CAII small-molecule binders, profiling panel, biochemical, small-molecule microarray, Alexa647-labelled CAII (AID 1122)
Conditions: CAII-A647 binding fluorescence, higher = more signal
assay.metric: composite z-score

| compound | endpoint.value |
| --- | --- |
| COc1cc(CO)cc(I)c1O[C@H]1C=C(C(=O)NCCO)C[C@@H](NCc2ccc(F)cc2)[C@@H]1O | 0.223 |
| COCCOC(=O)N1C(=O)[C@@]2(c3cc(C#CC4=CCCCC4)ccc31)[C@H](c1ccccc1OCCO)N1[C@H](c3ccccc3)[C@H](c3ccccc3)OC(=O)[C@H]1[C@@H]2C(=O)Nc1nc2ccccc2s1 | 0.236 |
| COc1ccc([Si](C)(C)[C@H]2[C@H](CCO)O[C@@]3(C(=O)N(Cc4cccc(N5C(=O)COc6ccccc65)c4)c4ccccc43)[C@@H]2C)cc1 | 0.338 |
| COC(=O)[C@@]1(Cc2ccc(OC)cc2)[C@H]2c3cc(C(=O)N(C)C)n(Cc4ccc(Cl)c(C(F)(F)F)c4)c3C[C@H]2CN1C(=O)c1ccccc1 | 0.377 |
| CC(C)N1C(=O)c2ccccc2[C@@H](C(=O)NC2CC2)[C@@H]1c1ccc(CO)cc1 | 0.742 |
| C[N+](C)(C)CCCC[C@@H]1NC(=O)[C@H]2C[C@@H](C(=O)NCCCCCCN)[C@@H](c3ccc(O)cc3)N2C1=O | 0.685 |
| Cc1ccc(S[C@]2(C(=O)O)CC(=O)N(C3Cc4ccccc4C3)[C@@H]2c2ccc(CO)cc2)cc1 | 0.727 |
| C=C(CCCC)/C(=C/C[C@@H](OC(=O)c1ccncc1)c1ccccc1OCCO)c1cnc2ccccc2c1 | 0.719 |
| Cc1cc(C)c(C(O)C2C=CC3C(=O)NC(=O)C3N2Nc2ccc(Cl)cc2Cl)c(C)c1 (configuration not stated) | 0.575 |
| C[C@@H]1NC(=O)[C@@]23C(=O)N[C@@H](Cc4ccccc4)C2[C@H](C)[C@@]2(C)O[C@H]2C3/C=C/C/C=C\CNC(=O)[C@@H]2CCCN2C1=O (some centres not stated) | 0.742 |
| CN1C(=O)C2C=CC(C(O)c3ccc(F)cc3)N(Nc3ccccc3)C2C1=O (configuration not stated) | 0.721 |
| O[C@@H](Cc1ccccc1)[C@@H](/C=C/C1CC1)N(CC#Cc1ccccc1)Cc1cccc(Cl)c1 | -0.245 |
| CC[C@H]1C2=C3C(CC[C@H]4C(OCc5ccc(F)cc5C(F)(F)F)OC[C@](C)([C@@H]34)N(C(=O)OC(C)(C)C)C2)C(COC)C1COC (some centres not stated) | 0.687 |
| CCCCC(O)C1C=CC2C(=O)N(c3ccccc3)C(=O)C2N1Nc1ccc(C(C)C)cc1 (configuration not stated) | 0.712 |
| O=C1O[C@@H](c2ccccc2)[C@@H](c2ccccc2)N2[C@@H](c3ccccc3OCCO)[C@]3(C(=O)Nc4ccc(C#CCCO)cc43)[C@@H](C(=O)N3CCCCCCC3)[C@H]12 | 0.972 |
| O=C1O[C@@H](c2ccccc2)[C@@H](c2ccccc2)N2[C@@H](c3ccc(O)cc3)[C@]3(C(=O)Nc4ccc(C#CC5(O)CCCCCC5)cc43)[C@@H](C(=O)NC[C@H](O)c3ccccc3)[C@H]12 | 0.547 |
| COC(=O)[C@@]1(Cc2ccccc2)[C@H]2c3cc(C(=O)N(C)C)n(CCc4ccc(O)c(OC)c4)c3C[C@H]2CN1C(=O)c1ccccc1 | 0.126 |
| CCOC(=O)C1=CC[C@@H](c2ccccc2C(F)(F)F)N(S(=O)(=O)c2ccc(C)cc2)[C@H]1c1ccc(C#N)cc1 | 0.675 |
| O=C1O[C@@H](c2ccccc2)[C@@H](c2ccccc2)N2[C@@H](c3ccc(O)cc3)[C@]3(C(=O)Nc4ccc(C#CC5=CCCCC5)cc43)[C@@H](C(=O)NC[C@H](O)c3ccccc3)[C@H]12 | 0.401 |
| C=C(C)C1CCC(C(O)C2C=CC3C(=O)N(C)C(=O)C3N2N2CCCCC2)CC1 (configuration not stated) | 0.514 |
| CN1C(=O)C2C=CC(C(O)c3cccc4ccccc34)N(N3CCCCC3)C2C1=O (configuration not stated) | 0.586 |
| [N-]=[N+]=Nc1ccccc1C[C@]1(C(=O)N2CCOCC2)N=C(c2ccc(OCCCO)cc2)O[C@H]1c1ccccc1 | 0.627 |
| C=CCC(OC(C)=O)[C@@H]1[C@@H](N(Cc2cccc3ccccc23)C(=O)Cc2ccc(OC)cc2)c2cc(OCCCO)ccc2N1C(=O)c1ccc2ccccc2n1 (some centres not stated) | 0.189 |
| COCCOC(=O)N1C(=O)[C@@]2(c3cc(C#CC4=CCCCC4)ccc31)[C@H](c1ccc(OCCO)cc1)N1[C@H](c3ccccc3)[C@H](c3ccccc3)OC(=O)[C@H]1[C@@H]2C(=O)N1CCN(c2ncccn2)CC1 | 0.425 |
| COC(=O)[C@@]1(Cc2ccc(OC)cc2)[C@H]2c3cc(C(=O)N(C)C)n(C[C@H](O)CO)c3C[C@H]2CN1C(=O)c1ccccc1 | 0.782 |
| C=CCC(OC(C)=O)[C@@H]1[C@@H](N(Cc2cc3ccccc3o2)C(=O)Cc2ccc(F)cc2)c2cc(OCCCO)ccc2N1C(=O)c1ccc2ccccc2c1 (some centres not stated) | 0.31 |
| CCCC[C@@H](O)C1=C(COc2ccccc2)C[C@H]2C(=O)N(C)C(=O)[C@H]2[C@H]1CO | -0.482 |

----------
Experiment: E. coli acrAB mutant growth effects, primary screen, E. coli filamentation inducers, strain DRC39, OD650, 24 h (AID 1178);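 also: growth measured as culture turbidity by optical density at 650 nm; test concentration not given here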
Conditions: higher = more signal, called active from +8 up or from −8 down
Activity calls are given as the source filed them.
assay.metric: z-score

| smiles.text | endpoint.value |
| --- | --- |
| COC(=O)[C@@]1(Cc2ccccc2N=[N+]=[N-])N=C(c2ccc(OCCCO)cc2)O[C@H]1c1ccccc1N=[N+]=[N-] | 2.12 (inactive) |
| CN(C)C(=O)[C@@]1(Cc2ccccc2CN=[N+]=[N-])N=C(c2ccc(OCCCO)cc2)O[C@H]1c1ccccc1CN=[N+]=[N-] | 0.117 (inactive) |
| CCCNC(=O)[C@@]1(c2ccc([N+](=O)[O-])cc2)CC(=O)N(C2CCCCC2)[C@@H]1c1ccc(CO)cc1 | 0.117 (inactive) |
| COC(=O)c1c2oc(c1C(=O)OC)C(=O)N(C)Cc1cn(nn1)C[C@H](Cc1ccccc1)NC(=O)N[C@H](CO)CC2 | -0.499 (inactive) |
| C=CCOC(=O)[C@H]1[C@@H]2C(=O)O[C@@H](c3ccccc3)[C@@H](c3ccccc3)N2[C@@H](c2ccc(OCCOC(=O)[C@H]3C[C@H]4C(=O)N[C@@H](CCCCNC(C)=O)C(=O)N4[C@H]3c3ccc(O)cc3)cc2)[C@]12C(=O)Nc1ccccc12 | 2.63 (inactive) |
| O=C1c2ccccc2[C@](Cc2ccccc2I)(C(=O)NCC(F)(F)F)[C@H](c2ccc(CO)cc2)N1C1CCCCC1 | 0.739 (inactive) |

----------
System: Human papillomavirus type 1a protein E7 (residues 44-93)
Assay: HPV1a E7 fragment binders on microarrays, primary screen, biochemical, small-molecule microarray, residues 44-93, 635 nm fluorescence (AID 1108);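 also: E7 fragment applied at 1 µg/mL in TBST for 1 h at 4 C; score combines spot fluorescence with its signal to noise ratio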
Conditions: small-molecule microarray binding, fluorescence 635 nm; higher = more signal

| molecule | composite z-score |
| --- | --- |
| O=C1OCC=C[C@H]2OC34C=CCN(c5ccc(Cl)cc5)C(=O)[C@H]3N(CCO)C(=O)[C@@H]4[C@@H]12 (stereo not given in full) | -0.0723 |
| COCCCNC(=O)[C@@]1(Sc2ccc(C)cc2)CC(=O)N(C2CCCCC2)[C@@H]1c1ccc(CO)cc1 | 0.104 |
| COCCOC(=O)N1C(=O)[C@@]2(c3cc(C#CC4=CCCCC4)ccc31)[C@H](c1ccccc1OCCO)N1[C@H](c3ccccc3)[C@H](c3ccccc3)OC(=O)[C@H]1[C@@H]2C(=O)Nc1nc2ccccc2s1 | 1.33 |
| COC(=O)c1cn(C[C@@H](Cc2ccccc2)NC(=O)N[C@H](CO)CCc2oc(C(C)=O)c(C(=O)OC)c2C(=O)OC)nn1 | 0.303 |
| COCCCNC(=O)[C@]1(CCS(=O)(=O)c2ccccc2)N=C(c2ccc(OCCCO)cc2)O[C@@H]1c1ccccc1N=[N+]=[N-] | 1.23 |
| COc1ccc([Si](C)(C)[C@@H]2[C@@H](CC(=O)N3Cc4ccccc4C[C@H]3CO)O[C@]3(C(=O)N(Cc4cccc(N5C(=O)c6cccc7cccc5c67)c4)c4ccccc43)[C@H]2C)cc1 | 1.21 |
| C[C@@H]1ON(c2ccc(C(=O)OC(C)(C)C)cc2)[C@H](c2ccc(O)cc2)[C@H]1C(=O)N1C(=O)OC[C@H]1Cc1ccccc1 | 0.606 |
| COC(=O)[C@@]1(Cc2ccccc2)[C@H]2c3cc(C(=O)N(C)C)n(Cc4c(CO)[nH]cc(C)c4=O)c3C[C@H]2CN1C(=O)c1ccccc1 | -0.0355 |
| COCCCNC(=O)[C@@]1(Cc2ccccc2N=[N+]=[N-])COC(c2ccc(OCCCO)cc2)=N1 | 1.44 |
| C=C(C(=O)CC[C@@H](OC(C)=O)c1ccc(CO)o1)C(C)C | -0.306 |
| CCOC(=O)C1=CC[C@@H](c2cccc(Cl)c2)N(S(=O)(=O)c2ccc(C)cc2)C1 | 0.412 |
| CN1C(=O)C2C=CC(C(O)c3cccc4ccccc34)N(N3CCCCC3)C2C1=O (stereo not given) | 0.817 |
| C=C(CCCC)/C(=C/C[C@@H](OC(=O)c1ccncc1)c1ccccc1OCCO)c1cnc2ccccc2c1 | 1.33 |
| Cc1ccc(S[C@]2(C(=O)O)CC(=O)N(Cc3ccccc3Cl)[C@@H]2c2ccc(CO)cc2I)cc1 | -0.455 |
| CC(C)(C)OC(=O)CC[C@@]1(C(=O)NCc2ccccc2)N=C(c2ccc(OCCCO)cc2)O[C@@H]1c1ccccc1N=[N+]=[N-] | 0.912 |
